subject.of.test: human SIRPα expressed on the surface of human monocyte-derived dendritic cells (human) (UniProt P78324)
Sequence (P78324 31-504): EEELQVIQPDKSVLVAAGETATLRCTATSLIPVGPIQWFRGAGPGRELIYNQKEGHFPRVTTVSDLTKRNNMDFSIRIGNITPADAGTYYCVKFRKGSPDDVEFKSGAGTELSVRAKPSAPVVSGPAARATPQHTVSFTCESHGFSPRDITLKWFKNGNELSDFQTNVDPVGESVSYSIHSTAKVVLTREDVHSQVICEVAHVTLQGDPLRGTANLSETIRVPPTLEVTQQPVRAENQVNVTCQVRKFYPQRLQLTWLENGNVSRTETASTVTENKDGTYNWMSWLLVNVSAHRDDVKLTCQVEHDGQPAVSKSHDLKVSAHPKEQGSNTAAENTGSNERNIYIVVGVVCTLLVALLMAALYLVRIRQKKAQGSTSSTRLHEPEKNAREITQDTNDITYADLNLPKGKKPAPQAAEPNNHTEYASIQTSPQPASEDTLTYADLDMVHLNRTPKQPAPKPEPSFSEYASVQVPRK
assay.info: flow cytometry on human monocyte-derived dendritic cells
measurement.kind: pKd
Scale explanation: pKd corresponds to minus log10 of a concentration expressed in moles per litre.

{"binder": "89H-IgG4 S228P (antibody, V domains shown) VH: EVQLVESGGGLVQPGGSLRLSCAASGFSLSTYAMIWVRQAPGKGLEWVGIISPSGTTYYATWAKGRFTISRDNSKNTLYLQMNSLRAEDTAVYYCARAGSGGWDYFNIWGQGTLVTVSS VL: DIQMTQSPSSLSASVGDRVTITCQASQSISSYLSWYQQKPGKAPKLLIYYASNLASGVPSRFSGSGSGTDFTLTISSLQPEDFATYYCQSYYYSNNYNWAFGGGTKVEIK", "measurement.kind": "pKd", "observed.result": 9.42}
{"binder": "8H- IgG4 S228P (antibody, V domains shown) VH: EVQLVESGGGLVQPGGSLRLSCAASGFSFSSSDYMCWVRQAPGKGLEWVGCINSGSDTTSYATWAKGRFTISRDNAKNTLYLQMNSLRAEDTAVYYCARGYGSAGANGYVIGMKYLNLWGQGTLVTVSS VL: DIQMTQSPSSLSASVGDRVTITCQASQSIGSNLAWYQQKPGKAPKLLIYTASTLESGVPSRFSGSGSGTDFTLTISSLQPEDFATYYCQCTYGSSSSGYPFGGGTKVEIK", "measurement.kind": "pKd", "observed.result": 8.78}
{"binder": "4H- IgG4 S228P (antibody, V domains shown) VH: EVQLVESGGGLVQPGGSLRLSCAASGFSFSSYYFMCWVRQAPGKGLEWVACIDAGYSGGSHYASWAKGRFTISRDNSKNTLYLQMNSLRAEDTAVYYCARAYEYGYGGYDLWGQGTLVTVSS VL: DIQMTQSPSSLSASVGDRVTITCQASQSIDSNLAWYQQKPGKAPKLLIYRASGLESGVPSRFSGSGSGTDFTLTISSLQPEDFATYYCQCTYGSNDSGNYANAFGGGTKVEIK", "measurement.kind": "pKd", "observed.result": 10.06}

QUERY: Assign pKd to the following record: 44H-IgG4 S228P (antibody, V domains shown) VH: EVQLVESGGGLVQPGGSLRLSCAASGFSLSSYSMIWVRQAPGKGLEWVGIIYTGSSASYASWAKGRFTISRDNSKNTLYLQMNSLRAEDTAVYYCARENSHDTFDPWGQGTLVTVSS VL: DIQMTQSPSSLSASVGDRVTITCQSSQSVYTNYLSWYQQKPGKAPKLLIYAASTLASGVPSRFSGSGSGTDFTLTISSLQPEDFATYYCLGSYVSSGWYYAFGGGTKVEIK
RESULT: 9.17
